targetEntity: CDK2-NanoLuc fusion with CCNE1 in 293T or 293 cells (Homo sapiens, UniProt P24941)
Construct: host or cells: 293T (ATCC CRL-3216) or 293 (ATCC CRL-1573)
protocolSummary: NanoBRET Target Engagement (TE) Intracellular Kinase Assay, CDK2/CCNE1
Format: cell-based
testSettings: NanoBRET TE intracellular kinase assay, 2-hour incubation, read-out: NanoBRET-CDK2/E1 IC50
pIC50: −log10 of the molar value.
readout: pIC50

structureAsSmiles	pIC50
COc1cc(O)c(C=O)c(OCC(=O)Nc2cc([C@H]3CC[C@@H](OC(=O)N4CCCO4)C3)[nH]n2)c1	8.58
CC(C)NC(=O)O[C@@H]1CC[C@H](c2cc(NC(=O)c3cnn(-c4cccc(O)c4C=O)c3)n[nH]2)C1	7.60
COc1cc(O)c(C=O)c(OCC(=O)Nc2cc([C@H]3CC[C@@H](OC(=O)N[C@H](C)CC(F)F)C3)[nH]n2)c1	8.64

(A) COc1cc(O)c(C=O)c(OCC(=O)Nc2cc([C@H]3CC[C@@H](OC(=O)N(C(C)C)C(C)C)C3)[nH]n2)c1
(B) CC(C)NC(=O)O[C@@H]1CC[C@H](c2cc(NC(=O)c3cc(Oc4cccc(O)c4C=O)nn3C)n[nH]2)C1
(C) CC(C)NC(=O)O[C@@H]1CC[C@H](c2cc(NC(=O)Cc3cnc(-c4cccc(O)c4C=O)s3)n[nH]2)C1
Lookup: # rank by pIC50, ascending (min first) Please list the labels in the order you were asked to rank them.
Found: B, C, A
(B: 7.79, C: 8.17, A: 8.46)

(P) COc1cc(O)c(C=O)c(OCC(=O)Nc2cc([C@H]3CC[C@@H](OC(=O)NN4CCCC4)C3)[nH]n2)c1
(Q) CC(C)NC(=O)O[C@@H]1CC[C@H](c2cc(NC(=O)CNc3cccc(O)c3C=O)n[nH]2)C1
(R) CC(C)NC(=O)O[C@@H]1CC[C@H](c2cc(NC(=O)OCc3cccc(O)c3C=O)n[nH]2)C1
(S) CC(C)NC(=O)O[C@@H]1CC[C@H](c2cc(NC(=O)OCCc3cccc(O)c3C=O)n[nH]2)C1
Lookup: Please list these molecules in decreasing order of pIC50. Provide the ranking by listing each label in its place in the requested order.
Found: P, R, S, Q
(P: 8.53, R: 8.02, S: 7.62, Q: 6.19)

###

targetEntity: CDK2-NanoLuc fusion with CCNE1 in 293T or 293 cells (Homo sapiens)
Construct: host or cells: 293T (ATCC CRL-3216) or 293 (ATCC CRL-1573)
protocolSummary: NanoBRET Target Engagement (TE) Intracellular Kinase Assay, CDK2/CCNE1
Type: cell-based
testSettings: NanoBRET TE intracellular kinase assay, 2-hour incubation, read-out: NanoBRET-CDK2/E1 IC50
readout: IC50 (nM)

molecule	IC50 [nM]
COc1cc(O)c(C=O)c(OCC(=O)Nc2cc([C@H]3CC[C@@H](OC(=O)NC4COC4)C3)[nH]n2)c1	20.2

(I) COc1cc(O)c(C=O)c2c1CC(C(=O)Nc1cc([C@H]3CC[C@@H](OC(=O)NN(C)CC(F)(F)F)C3)[nH]n1)C2 (single isomer, unassigned) [Compound 265]
(II) COCC1(NC(=O)O[C@@H]2CC[C@H](c3cc(NC(=O)COc4cc(OC)cc(O)c4C=O)n[nH]3)C2)CCC1 (stereo in doubt)
Lookup: Which numeric IC50 is bigger, that of I or that of II ? Please reply using the label of the selected record.
Found: I
